experiment: Acute toxicity in mice; details: mouse, in vivo, ip
Value kind: LD50

Prompt line: Name the recorded LD50 of the molecule listed here: CC1Cc2cc3c(cc2C(c2ccc(N)cc2)=NN1)OCO3 (stereo not shown) [Example 1]
Response line: 260 mg/kg

These entries and their values trace back to patent US4835152A.
